assay: Chemical purity after standing at 80° C. (HPLC; lactam-based related substances and main compound); type: physicochemical; conditions: After 20 hours at 80° C.; peak area of lactam-based related substances relative to main compound (HPLC)
Where a name gives a salt, the structure may show the parent alone.
measurement_kind: Increase in related substances (%)
One number for each entry, in %.

O=C(O)CCCN[C@@H](Cn1c(=O)c2c(n(Cc3c(F)cccc3C(F)(F)F)c1=O)COC21CCN(Cc2ccc(C(F)(F)F)o2)CC1)c1ccccc1 [Potassium salt] ... 0.4
O=C(O)CCCN[C@@H](Cn1c(=O)c2c(n(Cc3c(F)cccc3C(F)(F)F)c1=O)COC21CCN(Cc2ccc(C(F)(F)F)o2)CC1)c1ccccc1 [Dihydrochloride salt] ... 0.9
O=C(O)CCCN[C@@H](Cn1c(=O)c2c(n(Cc3c(F)cccc3C(F)(F)F)c1=O)COC21CCN(Cc2ccc(C(F)(F)F)o2)CC1)c1ccccc1 [Dibesylate salt] ... 0.0
O=C(O)CCCN[C@@H](Cn1c(=O)c2c(n(Cc3c(F)cccc3C(F)(F)F)c1=O)COC21CCN(Cc2ccc(C(F)(F)F)o2)CC1)c1ccccc1 [Sodium salt] ... 0.6

Now consider the entry below.
Form field Increase in related substances, entry O=C(O)CCCN[C@@H](Cn1c(=O)c2c(n(Cc3c(F)cccc3C(F)(F)F)c1=O)COC21CCN(Cc2ccc(C(F)(F)F)o2)CC1)c1ccccc1 [Free base] : 79.0

====

assay: Hygroscopicity (weight increase after 1 week at 25° C. and 60% or 90% relative humidity); type: physicochemical; details: 60% RH, weight increase relative to the initial weight
Where a name gives a salt, the structure may show the parent alone.
Assignment: determine reported Hygroscopicity for the given compounds.
Answers are plain numbers, in wt %.

Example compounds with recorded Hygroscopicity:
O=C(O)CCCN[C@@H](Cn1c(=O)c2c(n(Cc3c(F)cccc3C(F)(F)F)c1=O)COC21CCN(Cc2ccc(C(F)(F)F)o2)CC1)c1ccccc1 [Dioxalate salt] ... 3.5
O=C(O)CCCN[C@@H](Cn1c(=O)c2c(n(Cc3c(F)cccc3C(F)(F)F)c1=O)COC21CCN(Cc2ccc(C(F)(F)F)o2)CC1)c1ccccc1 [Dihydrochloride salt] ... 2.1
O=C(O)CCCN[C@@H](Cn1c(=O)c2c(n(Cc3c(F)cccc3C(F)(F)F)c1=O)COC21CCN(Cc2ccc(C(F)(F)F)o2)CC1)c1ccccc1 [Potassium salt] ... 9.2
O=C(O)CCCN[C@@H](Cn1c(=O)c2c(n(Cc3c(F)cccc3C(F)(F)F)c1=O)COC21CCN(Cc2ccc(C(F)(F)F)o2)CC1)c1ccccc1 [Sodium salt] ... 8.7

Could you now consider this next compound?
Looking up O=C(O)CCCN[C@@H](Cn1c(=O)c2c(n(Cc3c(F)cccc3C(F)(F)F)c1=O)COC21CCN(Cc2ccc(C(F)(F)F)o2)CC1)c1ccccc1 [Dibesylate salt] , I see its Hygroscopicity listed as 0.06

====

assay: Chemical purity after standing at 80° C. (HPLC; lactam-based related substances and main compound); type: physicochemical; details: After 21 days at 80° C.; HPLC
Counter-ions that a name gives are not always drawn.
Please use Satisfied whenever Residual amount of main compound is not below 70%, and Not satisfied whenever it is.

Use these answered entries as a reference point.
O=C(O)CCCN[C@@H](Cn1c(=O)c2c(n(Cc3c(F)cccc3C(F)(F)F)c1=O)COC21CCN(Cc2ccc(C(F)(F)F)o2)CC1)c1ccccc1 [Potassium salt] ... Satisfied
O=C(O)CCCN[C@@H](Cn1c(=O)c2c(n(Cc3c(F)cccc3C(F)(F)F)c1=O)COC21CCN(Cc2ccc(C(F)(F)F)o2)CC1)c1ccccc1 [Dibesylate salt] ... Satisfied
O=C(O)CCCN[C@@H](Cn1c(=O)c2c(n(Cc3c(F)cccc3C(F)(F)F)c1=O)COC21CCN(Cc2ccc(C(F)(F)F)o2)CC1)c1ccccc1 [Free base] ... Not satisfied

### Prompt Check this molecule for Residual amount of main compound at or above 70%: O=C(O)CCCN[C@@H](Cn1c(=O)c2c(n(Cc3c(F)cccc3C(F)(F)F)c1=O)COC21CCN(Cc2ccc(C(F)(F)F)o2)CC1)c1ccccc1 [Sodium salt]
### Response Satisfied

====

test: Hygroscopicity (weight increase after 1 week at 25° C. and 60% or 90% relative humidity); format: physicochemical; conditions: 90% RH, weight increase relative to the initial weight
Where a name gives a salt, the structure may show the parent alone.
Values of Hygroscopicity greater than or equal to 20 wt % map to MET; values below map to NOT MET.

Sample answers from the record:
O=C(O)CCCN[C@@H](Cn1c(=O)c2c(n(Cc3c(F)cccc3C(F)(F)F)c1=O)COC21CCN(Cc2ccc(C(F)(F)F)o2)CC1)c1ccccc1 [Dioxalate salt] ... NOT MET
O=C(O)CCCN[C@@H](Cn1c(=O)c2c(n(Cc3c(F)cccc3C(F)(F)F)c1=O)COC21CCN(Cc2ccc(C(F)(F)F)o2)CC1)c1ccccc1 [Dibesylate salt] ... NOT MET
O=C(O)CCCN[C@@H](Cn1c(=O)c2c(n(Cc3c(F)cccc3C(F)(F)F)c1=O)COC21CCN(Cc2ccc(C(F)(F)F)o2)CC1)c1ccccc1 [Dihydrochloride salt] ... NOT MET
O=C(O)CCCN[C@@H](Cn1c(=O)c2c(n(Cc3c(F)cccc3C(F)(F)F)c1=O)COC21CCN(Cc2ccc(C(F)(F)F)o2)CC1)c1ccccc1 [Sodium salt] ... MET

Continue with the next compound.
### Prompt Confirm if Hygroscopicity reported for the compound O=C(O)CCCN[C@@H](Cn1c(=O)c2c(n(Cc3c(F)cccc3C(F)(F)F)c1=O)COC21CCN(Cc2ccc(C(F)(F)F)o2)CC1)c1ccccc1 [Potassium salt] is 20 wt % or above.
### Response MET
